- System: blood platelet aggregation induced by U.46619
- assay-details: In vitro rabbit platelet aggregation induced by U.46619
- Format: cell-based, New Zealand rabbits
- condition-notes: Oryctolagus cuniculus; rabbit platelet-rich plasma; U.46619 1.05 to 2.44 micromoles; pre-incubated 1 min at 37° C., pH 7.4
attribute-measured: pIC50
Expect pIC50 as a plain number equal to -log10 of the molar concentration.

IN: # lookup: pIC50 of O=C(CNS(=O)(=O)c1ccc(Cl)cc1)c1ccc2c(c1)CC(C(=O)O)O2 (centres unmarked) [Compound 1]
OUT: 6.22

IN: Next record, please: O=C(O)C1Cc2cc(C(O)CNS(=O)(=O)c3ccc(Cl)cc3)ccc2O1 (centres unmarked) [Compound 3]
OUT: 5.30

IN: Now consider O=C(O)C1CCc2cc(CCNS(=O)(=O)c3ccc(Cl)cc3)ccc2O1 (centres unmarked) [Compound 7] and answer again.
OUT: 6.30

IN: Similarly, O=C(O)c1cc2cc(CCNS(=O)(=O)c3ccc(Cl)cc3)ccc2o1 [Compound 11] ?
OUT: 5.70

IN: Now the molecule O=C(O)C1Cc2cc(CCNS(=O)(=O)c3ccc(Cl)cc3)ccc2O1 (centres unmarked) [Compound 2]
OUT: 6.30

====

- assay-details: Solubility in water
- Type: physicochemical
- condition-notes: read-out: soluble in water to give a solution of
For each record, write down the corresponding solubility.
# value in µg/mL; strip the unit string

IN: For O=C(CNS(=O)(=O)c1ccc(Cl)cc1)c1ccc2c(c1)CC(C(=O)O)O2 (centres unmarked) [Compound 25, trihydrate] , what is its reported solubility?
OUT: 10000

IN: What about O=C(O)C1Cc2cc(CCNS(=O)(=O)c3ccc(Cl)cc3)ccc2O1 (centres unmarked) ?
OUT: 15000

IN: Next record, please: O=C(CNS(=O)(=O)c1ccc(Cl)cc1)c1ccc2c(c1)CC(C(=O)O)C2 (racemic)
OUT: 5000

IN: Could you do the same for O=C(CNS(=O)(=O)c1ccc(Cl)cc1)c1ccc2c(c1)CCC(C(=O)O)O2 (racemic) , please?
OUT: 10000

IN: Next: O=C(O)C1CCc2cc(CCNS(=O)(=O)c3ccc(Cl)cc3)ccc2O1 (centres unmarked)
OUT: 10000

====

I'd appreciate it if you could supply soluble in DMSO to give a solution of values for the items below.
- assay-details: Solubility in DMSO
- Format: physicochemical

IN: For the compound COc1ccc(S(=O)(=O)NCC(=O)c2ccc3c(c2)CC(C(=O)O)O3)cc1 (centres unmarked) , what soluble in DMSO to give a solution of is on record?
OUT: 30%

IN: Also check CCOC(=O)C1CCc2cc(C(=O)CNS(=O)(=O)c3ccc(Cl)cc3)ccc2O1 (centres unmarked)
OUT: 25%

IN: Moving on to the next compound: O=C(CNS(=O)(=O)c1ccc(Cl)cc1)c1ccc2c(c1)CCC(C(=O)O)O2 (centres unmarked)
OUT: 25%

IN: Follow-up item: "O=C(O)c1cc2cc(CCNS(=O)(=O)c3ccc(Cl)cc3)ccc2o1"
OUT: 5%

IN: And what about the compound O=C(O)C1Cc2cc(CCNS(=O)(=O)c3ccc(Cl)cc3)ccc2O1 (centres unmarked) [Compound 4, monohydrate] ?
OUT: 10%

IN: // repeat for O=C(CNS(=O)(=O)c1ccc(Cl)cc1)c1ccc2c(c1)CC(C(=O)O)C2 (centres unmarked) and report
OUT: 15%

IN: What do you have for O=C(O)C1Cc2cc(C(CNS(=O)(=O)c3ccc(Cl)cc3)=NO)ccc2O1 (centres unmarked) ?
OUT: 10%

IN: Subsequent entry: O=C(O)C1Cc2cc(CCNS(=O)(=O)c3ccc(Cl)cc3)ccc2S1 (centres unmarked)
OUT: 20%

IN: Next: O=C(O)C1Oc2ccc(CCNS(=O)(=O)c3ccc(Cl)cc3)cc2O1 (centres unmarked)
OUT: 20%

IN: Similarly, O=C(O)C1Cc2ccc(CCNS(=O)(=O)c3ccc(Cl)cc3)cc2C1 (centres unmarked) ?
OUT: 10%

IN: Continue with Cc1ccc(S(=O)(=O)N(C)CC(=O)c2ccc3c(c2)CC(C(=O)O)O3)cc1 (centres unmarked)
OUT: 10%

IN: Please give the result for CC(NS(=O)(=O)c1ccc(Cl)cc1)C(=O)c1ccc2c(c1)CC(C(=O)O)O2 (centres unmarked) too.
OUT: 10%

IN: Could you do the same for CON=C(CNS(=O)(=O)c1ccc(Cl)cc1)c1ccc2c(c1)CC(C(=O)O)O2 (centres unmarked) , please?
OUT: 10%

IN: Ok, now O=C(CNS(=O)(=O)c1c(F)c(F)c(F)c(F)c1F)c1ccc2c(c1)CC(C(=O)O)O2 (centres unmarked)
OUT: 20%

IN: // query: O=C(O)C1Cc2cc(C(O)CNS(=O)(=O)c3ccc(Cl)cc3)ccc2O1 (centres unmarked)
OUT: 10%

IN: Continue with O=C(O)C1Cc2cc(CCNS(=O)(=O)c3ccc(Cl)cc3)ccc2O1 (centres unmarked) [Compound 2]
OUT: 10%

IN: How about this compound: O=C(CNS(=O)(=O)c1ccccc1)c1ccc2c(c1)CC(C(=O)O)O2 (centres unmarked)
OUT: 25%

IN: Param item: O=C(CNS(=O)(=O)c1ccc(Cl)cc1)c1ccc2c(c1)CC(C(=O)O)O2 (centres unmarked)
OUT: 10%

IN: Could you do the same for O=C(O)C1CCc2cc(CCNS(=O)(=O)c3ccc(Cl)cc3)ccc2O1 (centres unmarked) , please?
OUT: 20%

IN: Now this one: CC(NS(=O)(=O)c1ccc(Cl)cc1)C(O)c1ccc2c(c1)CC(C(=O)O)O2 (centres unmarked)
OUT: 5%
